B1: TPR t1 (parent)
chain: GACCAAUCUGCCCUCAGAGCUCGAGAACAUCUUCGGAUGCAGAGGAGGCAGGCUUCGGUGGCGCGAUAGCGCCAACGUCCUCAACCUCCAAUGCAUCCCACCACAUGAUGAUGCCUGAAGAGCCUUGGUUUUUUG

- Variants of: B1
- test.description: polymerase ribozyme fitness, log enrichment relative to wild type (log ratio); higher = more active; in vitro selection for triplet polymerase activity
For each entry below, report its polymerase ribozyme fitness (log ratio) value.
Give bare numbers.

Here is how some variants turned out for polymerase ribozyme fitness (log ratio).
chain	polymerase ribozyme fitness (log ratio)
GACCAAUCUGCCUUCAGAGCUCGAGAACAUCUUCGGAUGCAGAGGAGGCAGGCUUCGGUGGCGCGAUAGCGCCAACGUCCUCAACCUACAAUGCAUCCCACCACAUGAUGAUGCCUGAAGAGCCUUGGUUUUUUG [C13U C88A]	-0.243
GACCAAUCUGCCCUCAGAGCUCGAGAACAUCUUCGGAUGCAGAGGCGGCAGGCUUCGGUGGCGCGAUAUCGCCAACGUCCUCAACCUCCAAUGCAUCCCACCACAUGAUGAUGCCUGAAGAGCCUUGGUUUUUUG [A46C G69U]	-0.0247
GACCAAUCUGCCCUCAGAGCUCGAGAACAUCUUCGGAUGCAGAGGAGGCAGGCUUCGGUGGCGCGAUAGCGCCAACGUCCUCAACCUCCAAUGCAUCCCACCACAUGAUGAUGCCUGAAGAACCUUGGUUUUUUG [G122A]	-0.49
GACCAAUCUGCCCUCAGAGCUCGAGAACAUCUUCGGGUGCAGAGGAGGGAGGCUUCGGUGGCGCGAUAGCGCCAACGUCCUUAACCUCCAAUGCAUCCCACCACAUGAUGAUGCCUGAAGAGCCUUGGUUUUUUG [A37G C49G C82U]	-0.637
GACCAUUCUGCCCUCAGAGCUCGAGAACAUCUUCGGAUGCAGAGGAGGUAGGCUUCGGUUGCGCGAUAGCGCCAACGUCCUCAACCUCCAAUGGAUCCCACCACAUGAUGAUACCUGAAGAGCCUUGGUUUUUUG [A6U C49U G60U C94G G113A]	-2.65

Provide each entry's polymerase ribozyme fitness (log ratio) from the list below.
1. GACCAAUCUGCCCUCAGAGCUCGAGAACAUCUUCGGAUGCAGAGGAGGCAGGCUUCGGUGGCGCGAUAGCGCCAACGUUCUCAACCUCCAAUGCAUCCCACUACAUGAUGAUGCCUAAAGAGCCUUGGUUUUUUG [C79U C102U G117A]
2. GACCAAUCUGCCCUCAGAGCUCGAGAACAUCCUCGGAUACAAAGGAGGCAGACUUCGGUGGCGCGAUAGUGCCAACGUCCUCAACCUGCAAUGCAUCCCACCACAUGAUGAUGCCUGAAGAGCCUUGGUUUUUUG [U32C G39A G42A G52A C70U C88G]
3. GACCAAUCUGCCCUCAGAGCUCGAGAACAUCUUCGGAUGCAGAGGAGUCAGGCUUCGGUGGCGCGAUAGCGUCAAUGUCCUCAACCUCCAAUGCAUCCCACCACUUGAUGAUGCCUGAAGAGCCUUGGUUUUUUG [G48U C72U C76U A105U]
4. GACCAAUCUGCCCUCAGAGCUCGAGAACAUCUUCGGAUGCAAAAGAUGCAGGCUUCGGUGGCGCGAUAGCGCCAACGUCCUCAACCUCCAAUGCAUCCCACCACAUGAUGAUGCCUGAAGAGCCUUGGUUUUUUG [G42A G44A G47U]
5. GACCAUUCGGCCCUCAGAGCUCGAGAACAUCUUCGGAUGCAGAGGAGGCAGGCUUCGGUGGCCCGAUAGCGCCAACGUCCUCAACCUCCAAUGCAUCCCACCAUAUGAUGAUGCUUUAAGAGCCUUGGUUUUUUG [A6U U9G G63C C104U C115U G117U]
6. GACCAAUCUGCCCUCAGAGCUCGAGAACAUCUUCGGAUGCAGAGGAGGCAGGCUUCGGUGGCGCGAUAGCGCCAACGUCCUCAACCUCCAAUGCAUCCCACCAUAUGAUGAUGCGUGAAGAGCCUUGGUUUUUUG [C104U C115G]
7. GACCAAUCUGCCCUCAGAGCUCGAGACCAUCUUCGGAUGCAGAGGAGGCAGGCUUCGGUGGCGCGAUAGCGACAACGUCCUCAACCUCCAAUGCAUCCCACCACAUGAUGAUGCCUGAAGAGCCUUGGUUUUUUG [A27C C72A]

1: -3.4; 2: -3.93; 3: -3.61; 4: -3.4; 5: -1.31; 6: -1.22; 7: -3.22
